assay.details: protein stability index of a GFP-peptide fusion (yeast GPS) (PSI 1-4); higher = more stable; sorted into four equal gates, so the index is relative within each strain
condition.set: ubr1∆
Criterion: protein stability index meeting or surpassing 3. Met: YES. Not met: NO.

Is the recorded value of protein stability index equal to or greater than 3 for this sequence? TSAKEPSENDVFYRMQQ [RPO31]
NO

Is the recorded value of protein stability index equal to or greater than 3 for this sequence? SFGNREEFINKLVKSMN [RPL7A]
NO

Is the recorded value of protein stability index equal to or greater than 3 for this sequence? YNRHKLQELIVNGPNVH [RPO31]
NO

Is the recorded value of protein stability index equal to or greater than 3 for this sequence? PPSKHSTLTLSDSEDSD [ESC2]
NO

Is the recorded value of protein stability index equal to or greater than 3 for this sequence? TLDVEAFKSVVSTETFE [RPL27A]
NO

Is the recorded value of protein stability index equal to or greater than 3 for this sequence? STFENRNVGKTLVNKST [RPS1A]
YES

Is the recorded value of protein stability index equal to or greater than 3 for this sequence? TQSYNNQNTLKEISARR [POP1]
NO

Is the recorded value of protein stability index equal to or greater than 3 for this sequence? TKFKGGKRQLMKAVGEY [SEC65]
NO

Is the recorded value of protein stability index equal to or greater than 3 for this sequence? KFMELERKTLERQQENL [SWI3]
YES

Is the recorded value of protein stability index equal to or greater than 3 for this sequence? ANLGKYGILSIDDLIHE [RPL7A]
NO

Is the recorded value of protein stability index equal to or greater than 3 for this sequence? ETLEHNPVALEQKLVDL [BRR2]
NO

Is the recorded value of protein stability index equal to or greater than 3 for this sequence? KDHDLKIPLPEVHDLIG [POP1]
NO

###

Give measured protein stability index for each item. Keep answers brief.
assay.details: protein stability index of a GFP-peptide fusion (yeast GPS) (PSI 1-4); higher = more stable; sorted into four equal gates, so the index is relative within each strain
condition.set: san1∆
Answer as a number with no unit attached.

Lab note: measured protein stability index of KGNLLEGKKVMAPYLPG [RPN2] was 2.03

Lab note: measured protein stability index of PCVEDGFVIQDRETALD [RPB2] was 3.16

Lab note: measured protein stability index of EKQTPNKKDKKKEEEEQ [RPN1] was 3.01

Lab note: measured protein stability index of AKKQNRPLPQWIRLRTN [RPL39] was 1.26

Lab note: measured protein stability index of SRMFEEVSGSIQYKKEY [SMC1] was 2.37

Lab note: measured protein stability index of ATSKTSEMLAKYSDILL [CDC53] was 2.99

Lab note: measured protein stability index of AFHNNLKFLYLLDAYSH [MED1] was 1.16

Lab note: measured protein stability index of KNFIESESVGAFLSFLA [YJL039C/NUP192] was 2.47

###

assay.details: protein stability index of a GFP-peptide fusion (yeast GPS) (PSI 1-4); higher = more stable; sorted into four equal gates, so the index is relative within each strain
condition.set: doa10∆
Criterion: protein stability index meeting or surpassing 3. Met: 1.0. Not met: 0.0.

Is the recorded value of protein stability index equal to or greater than 3 for this sequence? NFLSKIRNINVQDALLT [SNF2]
0.0

Is the recorded value of protein stability index equal to or greater than 3 for this sequence? NHVKQFYERLDKSTTQL [MED11]
0.0

Is the recorded value of protein stability index equal to or greater than 3 for this sequence? LLSLISTTAALQSISSL [RPN7]
0.0

Is the recorded value of protein stability index equal to or greater than 3 for this sequence? SQLAKWKTAEEVSALVR [PRP8]
0.0

Is the recorded value of protein stability index equal to or greater than 3 for this sequence? QQPNPLHGLTPTAKDVE [GAL11]
1.0

Is the recorded value of protein stability index equal to or greater than 3 for this sequence? TATTGKRKPAKSSSNRS [RPN4]
0.0

Is the recorded value of protein stability index equal to or greater than 3 for this sequence? NSLKETLQDFHLIFSNA [SNF2]
0.0

Is the recorded value of protein stability index equal to or greater than 3 for this sequence? ADLSSSEEEEDEEENGS [SSN2]
1.0

Is the recorded value of protein stability index equal to or greater than 3 for this sequence? TLESLENLVVADLESFA [COR1]
0.0

Is the recorded value of protein stability index equal to or greater than 3 for this sequence? NAEKTGKRQVLLRPSSK [RPS22B]
1.0

Is the recorded value of protein stability index equal to or greater than 3 for this sequence? EVFSRPEWMILTCLPVP [RPO21]
0.0

Is the recorded value of protein stability index equal to or greater than 3 for this sequence? QEVTNEAPFLTSGTSSE [GAL11]
1.0

Is the recorded value of protein stability index equal to or greater than 3 for this sequence? KMFIQRILAMCVKNHGQ [YCS4]
0.0

Is the recorded value of protein stability index equal to or greater than 3 for this sequence? GELFLNESWKSSFEKFN [SRP72]
1.0

Is the recorded value of protein stability index equal to or greater than 3 for this sequence? SALELVGQLNKVVDQLF [RPN6]
0.0

Is the recorded value of protein stability index equal to or greater than 3 for this sequence? PNFTGIDKLMLSPSDQF [SSN2]
0.0

Is the recorded value of protein stability index equal to or greater than 3 for this sequence? LATLLGHNDWVSQVRVV [ASC1]
0.0

Is the recorded value of protein stability index equal to or greater than 3 for this sequence? RAKAEAAEFRYKYGYDM [SCL1]
0.0

Is the recorded value of protein stability index equal to or greater than 3 for this sequence? MFNDLNSMDISMFSGLD [MED2]
1.0

Is the recorded value of protein stability index equal to or greater than 3 for this sequence? QRMHAIHEIDERLAKVN [NNF1]
0.0

Is the recorded value of protein stability index equal to or greater than 3 for this sequence? NVGDNNSTASSSNISPE [ARP7]
0.0

Is the recorded value of protein stability index equal to or greater than 3 for this sequence? YQLNGVAPFMIKYEFNG [YMR129W/POM152]
0.0

Is the recorded value of protein stability index equal to or greater than 3 for this sequence? SWSNGKITSPIRSVALN [RRP42]
0.0

Is the recorded value of protein stability index equal to or greater than 3 for this sequence? KRCVGVILGDANSSTIR [RPN8]
0.0

Is the recorded value of protein stability index equal to or greater than 3 for this sequence? GSQKTFEIDDEHRIRVF [RPS6A]
0.0

Is the recorded value of protein stability index equal to or greater than 3 for this sequence? SGGNNTATIINNESSDD [PCI8]
0.0

###

assay.details: protein stability index of a GFP-peptide fusion (yeast GPS) (PSI 1-4); higher = more stable; sorted into four equal gates, so the index is relative within each strain
condition.set: san1∆
Criterion: protein stability index meeting or surpassing 2. Met: 1.0. Not met: 0.0.

Is the recorded value of protein stability index equal to or greater than 2 for this sequence? NWYKSKKKAFTKYSAKY [RPL3]
1.0

Is the recorded value of protein stability index equal to or greater than 2 for this sequence? GPRNTEEKGWVPVTKLG [RPS2]
1.0

Is the recorded value of protein stability index equal to or greater than 2 for this sequence? IYINKSVPTNSADAPNP [RET1]
1.0

Is the recorded value of protein stability index equal to or greater than 2 for this sequence? AQQVPPYGVYHPPFIKY [SIN4]
1.0

Is the recorded value of protein stability index equal to or greater than 2 for this sequence? IVKFKQKEEGRSFTKAI [YLR335W/NUP2]
1.0

Is the recorded value of protein stability index equal to or greater than 2 for this sequence? VVIAADTRSTQGPIVAD [PUP1]
1.0

Is the recorded value of protein stability index equal to or greater than 2 for this sequence? MLETAGFSMNNPYNIVP [SMC3]
1.0

Is the recorded value of protein stability index equal to or greater than 2 for this sequence? KNVRTRIKLATTSERVS [RRI1]
1.0

Is the recorded value of protein stability index equal to or greater than 2 for this sequence? NMVRNNNNNTIDESMPD [GRR1]
1.0

Is the recorded value of protein stability index equal to or greater than 2 for this sequence? LPNLGTPDDDEIDVENH [RPN8]
0.0

Is the recorded value of protein stability index equal to or greater than 2 for this sequence? HYDNTTRNSLGNVIQFI [RPO21]
1.0

Is the recorded value of protein stability index equal to or greater than 2 for this sequence? ARNVTFDSLRNFIVHSP [GRR1]
1.0

Is the recorded value of protein stability index equal to or greater than 2 for this sequence? SPVELSRMFEEVSGSIQ [SMC1]
1.0

Is the recorded value of protein stability index equal to or greater than 2 for this sequence? RLTMGNVFTPEISSQIE [RRI2]
1.0

Is the recorded value of protein stability index equal to or greater than 2 for this sequence? TGEFDFEAAVKMSDGFN [RPT4]
1.0

Is the recorded value of protein stability index equal to or greater than 2 for this sequence? LLPPIKIELIKNNLLIP [RPN12]
0.0

Is the recorded value of protein stability index equal to or greater than 2 for this sequence? SALELVGQLNKVVDQLF [RPN6]
1.0

Is the recorded value of protein stability index equal to or greater than 2 for this sequence? VVYHPSNNELVRTNTLT [RPS8A]
1.0

Is the recorded value of protein stability index equal to or greater than 2 for this sequence? RQEVTKFAKANIGYVMG [RPN4]
0.0

Is the recorded value of protein stability index equal to or greater than 2 for this sequence? GMKVKADRDESSPYAAM [RPS14B]
0.0

Is the recorded value of protein stability index equal to or greater than 2 for this sequence? TSPSYSPTSPSYSPTSP [RPO21]
1.0

Is the recorded value of protein stability index equal to or greater than 2 for this sequence? QPQHPHYVSTSKISQMA [YLR018C/POM34]
1.0

Is the recorded value of protein stability index equal to or greater than 2 for this sequence? VQIKDVNDRYQIPTPNN [CSI1]
0.0

Is the recorded value of protein stability index equal to or greater than 2 for this sequence? DVSPLRRVNQAIALLTI [RPS5]
0.0

Is the recorded value of protein stability index equal to or greater than 2 for this sequence? GFPSAPQPLFMEDPPST [YMR153W/NUP53]
1.0

Is the recorded value of protein stability index equal to or greater than 2 for this sequence? YRNNEPAGFTHKLSNWL [YDL088C/ASM4]
1.0

Is the recorded value of protein stability index equal to or greater than 2 for this sequence? GPVAAQFTKVIDEPIKS [FAS1]
1.0

Is the recorded value of protein stability index equal to or greater than 2 for this sequence? TYSTPKRPYESSRLDAE [RPS9A]
1.0

Is the recorded value of protein stability index equal to or greater than 2 for this sequence? VAKLANWFLEVYASGNP [YML031W/NDC1]
0.0

Is the recorded value of protein stability index equal to or greater than 2 for this sequence? KKRKIHNGREGSIEEPE [MCD1]
1.0

Is the recorded value of protein stability index equal to or greater than 2 for this sequence? SFDVAISTACPRLDDVV [SMC4]
1.0

Is the recorded value of protein stability index equal to or greater than 2 for this sequence? GEIGDFFSSDWRFLQIL [POP1]
1.0

Is the recorded value of protein stability index equal to or greater than 2 for this sequence? NENPINKIMTNQINSFW [NUT1]
1.0

Is the recorded value of protein stability index equal to or greater than 2 for this sequence? ALAFCEIGITQQRIVSA [RRP4]
0.0

Is the recorded value of protein stability index equal to or greater than 2 for this sequence? PGTIVLYAERVQDRGLS [RPS3]
1.0

Is the recorded value of protein stability index equal to or greater than 2 for this sequence? SDDIAENDNLDNVSKNA [YCG1]
1.0

Is the recorded value of protein stability index equal to or greater than 2 for this sequence? SILDDIKLSLKDKTKNI [SMC4]
1.0

Is the recorded value of protein stability index equal to or greater than 2 for this sequence? NNGDKDHLKLVSLFSNL [YIL149C/MLP2]
1.0

Is the recorded value of protein stability index equal to or greater than 2 for this sequence? LNICRQCFREKANDIGF [RPS29A]
1.0

Is the recorded value of protein stability index equal to or greater than 2 for this sequence? AVHVTVRGPKAEEILER [RPL11A]
1.0

Is the recorded value of protein stability index equal to or greater than 2 for this sequence? MIATNVAARGLDIPNVS [PRP28]
1.0

Is the recorded value of protein stability index equal to or greater than 2 for this sequence? SVSSPIELNFDAVKDFK [QCR2]
1.0

Is the recorded value of protein stability index equal to or greater than 2 for this sequence? LLTNSNNGSSNNNTQNT [SNF5]
1.0

Is the recorded value of protein stability index equal to or greater than 2 for this sequence? SKEDYETLKRDRKQSQA [ARP7]
1.0

Is the recorded value of protein stability index equal to or greater than 2 for this sequence? EGEYELTEAVEDGPRPF [RPL5]
1.0

Is the recorded value of protein stability index equal to or greater than 2 for this sequence? MNRRKIAMPKRRMAFKP [YLR335W/NUP2]
1.0

Is the recorded value of protein stability index equal to or greater than 2 for this sequence? YLVEAPWNDDYPFLLSF [YML103C/NUP188]
0.0

Is the recorded value of protein stability index equal to or greater than 2 for this sequence? QYILQIVSFIVNCFHED [YJL039C/NUP192]
1.0

Is the recorded value of protein stability index equal to or greater than 2 for this sequence? VELTYSLNNSDSLISGV [BRR2]
1.0

Is the recorded value of protein stability index equal to or greater than 2 for this sequence? PRMIELMEFLCVVSTDS [ECM29]
0.0

Is the recorded value of protein stability index equal to or greater than 2 for this sequence? RLNYLYQISAYQTRARQ [RPR2]
0.0

Is the recorded value of protein stability index equal to or greater than 2 for this sequence? VDSLDPFSEGVTFSVMP [SMC4]
1.0

Is the recorded value of protein stability index equal to or greater than 2 for this sequence? LIQEHDSRKNREQSSND [BRN1]
1.0

Is the recorded value of protein stability index equal to or greater than 2 for this sequence? GCIKIYSSRVDSVTTET [BRN1]
1.0

Is the recorded value of protein stability index equal to or greater than 2 for this sequence? AGIRPKFILALNDEGEP [RPN1]
1.0

Is the recorded value of protein stability index equal to or greater than 2 for this sequence? DALQDVEESSEKKQKTE [DPB4]
1.0

Is the recorded value of protein stability index equal to or greater than 2 for this sequence? RSRYRREIDALKKQLHV [YIL149C/MLP2]
1.0

Is the recorded value of protein stability index equal to or greater than 2 for this sequence? LYVPHSENRFPGWDFET [RPL5]
1.0

Is the recorded value of protein stability index equal to or greater than 2 for this sequence? IATDGGRICRPLIIVSD [RET1]
0.0
